- Tested on: P1534 leukemia ip, CD2F1 mice, survival T/C
- method: NCI In Vivo Anticancer Drug Screen. Data for tumor model P1534 Leukemia (intraperitoneal) in CD2F1 (CDF1) mice
- run_conditions: endpoint: mean survival time; dose: 400.0 mg/kg/injection; schedule: Q01DX010 (ip); vehicle: saline; higher = longer survival
Toxic doses and inconclusive results are not listed.
I'd appreciate it if you could supply T/C values for the items below.

IN: Give the reported value of T/C for this record: CN(CC(=O)NCCCCCCCCCCNC(=O)CN(C)C(=O)OCc1ccccc1)C(=O)OCc1ccccc1
OUT: 96 % of control

IN: Give the reported value of T/C for this record: COc1ccc2c(=O)cc(-c3ccccc3)n(C)c2c1
OUT: 96 % of control

IN: Give the reported value of T/C for this record: O=C1C(=O)N(CN2CCCCC2)c2ccccc21
OUT: 100 % of control

IN: Give the reported value of T/C for this record: O=C(NCCCCCCNC(=O)OCc1ccccc1)OCc1ccccc1
OUT: 100 % of control

IN: Give the reported value of T/C for this record: COc1ccc2c(c1OC)CN1CCc3cc4c(cc3C1C2)OCO4 (centres undefined)
OUT: 100 % of control

IN: Give the reported value of T/C for this record: COc1ccc(C2NC(C(=O)O)Cc3c2[nH]c2ccccc32)cc1OC (centres undefined)
OUT: 100 % of control

IN: Give the reported value of T/C for this record: CC(CCc1ccc(OC(=O)c2ccccc2)cc1)OC(=O)c1ccccc1 (centres undefined)
OUT: 89 % of control

IN: Give the reported value of T/C for this record: O=C1C(=O)N(CN2CCOCC2)c2ccccc21
OUT: 103 % of control

IN: Give the reported value of T/C for this record: NCC(=O)NCCCCCCNCCCCCCNC(=O)CN
OUT: 100 % of control

IN: Give the reported value of T/C for this record: CC(=O)NCCCCCCCCCCNC(C)=O
OUT: 96 % of control

IN: Give the reported value of T/C for this record: O=C1C(=O)N(CN(CCO)CCO)c2ccccc21
OUT: 100 % of control

IN: Give the reported value of T/C for this record: CC(=O)NCCCCCCNC(C)=O
OUT: 100 % of control

IN: Give the reported value of T/C for this record: CN(C)CC(=O)NCCCCCCCCCCNC(=O)CN(C)C
OUT: 107 % of control

IN: Give the reported value of T/C for this record: CC(O)CCc1ccc(OC(=O)c2ccccc2)cc1 (centres undefined)
OUT: 93 % of control
